// values below are reported IC50
target: NLRP3 inflammasome (Homo sapiens, UniProt Q96P20); construct: endogenous in cells; host or cells: THP-1 monocytic cells; experiment: IL-1β secretion assay (NLRP3 IC50) in LPS-primed, nigericin-activated THP-1 cells, HTRF; assay type: cell-based; conditions: monocytic THP-1 cells; LPS 10 ng/mL 3 h priming, then compound + nigericin 10 μM 2 h; relative IC50, 10 concentrations, geometric mean
Sequence (Q96P20 whole entry): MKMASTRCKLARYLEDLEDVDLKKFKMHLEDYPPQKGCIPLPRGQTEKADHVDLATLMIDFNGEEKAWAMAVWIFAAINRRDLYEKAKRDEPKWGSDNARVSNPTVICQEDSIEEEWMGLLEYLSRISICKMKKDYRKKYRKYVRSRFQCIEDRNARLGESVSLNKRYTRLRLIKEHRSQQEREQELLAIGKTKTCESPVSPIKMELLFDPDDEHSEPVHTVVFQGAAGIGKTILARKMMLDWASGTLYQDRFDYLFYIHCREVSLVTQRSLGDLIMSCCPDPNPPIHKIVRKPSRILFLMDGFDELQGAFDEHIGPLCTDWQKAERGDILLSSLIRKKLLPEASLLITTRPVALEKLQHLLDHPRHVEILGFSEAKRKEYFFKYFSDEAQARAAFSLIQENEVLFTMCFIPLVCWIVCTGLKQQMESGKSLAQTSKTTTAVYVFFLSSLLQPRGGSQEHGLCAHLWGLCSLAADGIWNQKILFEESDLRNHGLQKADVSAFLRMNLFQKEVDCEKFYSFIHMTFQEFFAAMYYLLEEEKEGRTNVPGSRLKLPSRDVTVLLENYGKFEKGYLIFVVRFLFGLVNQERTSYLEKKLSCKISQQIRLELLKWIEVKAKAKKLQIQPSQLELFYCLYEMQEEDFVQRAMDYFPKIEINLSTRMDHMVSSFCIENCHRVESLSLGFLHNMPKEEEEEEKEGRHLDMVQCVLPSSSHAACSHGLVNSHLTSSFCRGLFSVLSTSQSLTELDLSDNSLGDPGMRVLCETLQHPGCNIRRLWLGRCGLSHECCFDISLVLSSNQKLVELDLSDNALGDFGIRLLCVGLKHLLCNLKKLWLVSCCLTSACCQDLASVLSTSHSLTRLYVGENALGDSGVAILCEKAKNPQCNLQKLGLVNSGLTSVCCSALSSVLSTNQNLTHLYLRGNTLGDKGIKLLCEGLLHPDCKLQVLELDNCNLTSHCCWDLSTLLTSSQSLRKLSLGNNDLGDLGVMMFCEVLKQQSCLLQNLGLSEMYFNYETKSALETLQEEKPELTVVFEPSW

| COMPOUND | IC50 |
| --- | --- |
| Cc1cc(C(F)(F)F)cc(O)c1-c1ccc(N2CC[C@@H](CO)C2=O)nn1 (single isomer, unassigned) | 198 nM |
| CCN1CC[C@H]2CCN(c3ccc(-c4c(C)cc(C(F)(F)F)cc4O)nn3)[C@H]2C1 (stereo in doubt) | 78 nM |
| Cc1cc(C(F)(F)F)cc(O)c1-c1ccc(N2CCO[C@@H](CC#N)C2)nn1 (single isomer, unassigned) | 219 nM |

Attention now shifts to the item below.
Hello, please tell me recorded IC50 for this one: Cc1cc(C)c(-c2ccc(N3CCO[C@@H]4CCNC[C@@H]43)nn2)c(O)c1 511 nM

Data origin, for the record: patent US20240360151A1
